Provenance of the data: patent US20260209362A1

Molecular target: T1, biotinylated recombinant human IL-12Rβ2 (human, UniProt Q99665 24-622, random biotinylated)
T1 construct: Recombinant protein produced in-house, biotinylated; also called hIL-12RB2; human IL-12RB2
T1 sequence: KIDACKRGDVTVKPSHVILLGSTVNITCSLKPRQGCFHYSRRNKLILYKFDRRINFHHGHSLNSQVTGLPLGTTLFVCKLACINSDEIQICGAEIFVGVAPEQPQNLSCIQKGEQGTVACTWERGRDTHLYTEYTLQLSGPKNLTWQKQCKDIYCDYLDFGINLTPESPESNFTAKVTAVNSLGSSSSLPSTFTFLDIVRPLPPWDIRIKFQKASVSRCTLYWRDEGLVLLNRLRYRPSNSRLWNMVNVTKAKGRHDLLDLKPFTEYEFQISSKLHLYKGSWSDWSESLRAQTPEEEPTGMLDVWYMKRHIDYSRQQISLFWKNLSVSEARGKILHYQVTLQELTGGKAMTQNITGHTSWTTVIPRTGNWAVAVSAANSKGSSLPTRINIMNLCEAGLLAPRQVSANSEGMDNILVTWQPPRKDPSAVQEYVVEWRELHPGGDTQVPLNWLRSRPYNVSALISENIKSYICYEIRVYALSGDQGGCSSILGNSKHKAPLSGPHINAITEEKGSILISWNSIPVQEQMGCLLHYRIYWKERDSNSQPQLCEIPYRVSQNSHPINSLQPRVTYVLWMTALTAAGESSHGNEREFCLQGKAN
Test: ELISA, periplasmic extract on biotinylated hIL-12Rβ2, signal over control wells
Assignment: determine reported ELISA binding hIL-12RB2/control for the given binders.
Respond with the bare value in ratio.

Reported ELISA binding hIL-12RB2/control for anti-IL-12Rβ2 VHH clone 20544 (VHH, not shown: small tags and cut ends, tested as periplasmic extract; also called 3CAMS19) VHH: QVQLQESGGGLVQAGGPLRLSCAASGRTFSSYGMGWFRQAPGKERDFVAAISRDARITDYADSVKGRFTISRDNVKNTVYLQMNSLNPEDTAVYFCAAAYTYSGSHYVTARSSDYHSWGQGTQVTVSS : what is it?
0.919

Would you kindly share the measured ELISA binding hIL-12RB2/control for anti-IL-12Rβ2 VHH clone 20498 (VHH, not shown: small tags and cut ends, tested as periplasmic extract; also called 2CAM73) VHH: QVQLQESGGGLVQAGGSLRLSCASSGRTFSSRTVGWFRQAPGKERYFVAAISRDTAYTDYADSVKGRFTISRGNAKNTVYLQMNSLNPEDTAVYYCAASHIYSGSHYISARSSDYMYWGQGTQVTVSS ?
0.994

GET /values?readout=ELISA binding hIL-12RB2/control&item= anti-IL-12Rβ2 VHH clone 20514 (VHH, not shown: small tags and cut ends, tested as periplasmic extract; also called 3CAM70) VHH: QVQLQESGGGLVQAGDSLRLSCIASGPSFSSYGMGWFRQAPGKEREFVAAISRDARITDYADSVKGRFTISRDNAKNTAYLEMNSLNPEDTAVYFCAAAYTYSGSHYVTARSSDYHSWGQGTQVTVSS
1.03

Could you tell me which ELISA binding hIL-12RB2/control is on file for anti-IL-12Rβ2 VHH clone 20480 (VHH, not shown: small tags and cut ends, tested as periplasmic extract; also called 2CAM36) VHH: QVQLQESGGGLVQAGGSLRLSCAASGRTFSSYGMGWFRQAPGKEREFVAAISRDARITDYADSVKGRFTISRDNAKNTAYLEMNSLNPEDTAVYFCAAAYTYSGSHYVTARSSDYHSWGQGTQVTVSS ?
0.979
